From: ChEMBL document CHEMBL3885881

species on record: Rattus norvegicus; assay: DrugMatrix - Regimen: Daily Repeat; format: toxicity, organism-based, Sprague-Dawley; set-up: regimen Daily Repeat, gender Male, age 6-8 weeks; conditions: in vivo, po, 0 mg/kg, 72 h, tissue Plasma, route oral GAVAGE, dose level Control, time 3 day, […]
Give measured BLOOD UREA NITROGEN for each item. Keep answers brief.
Give bare numbers, in mg/dL.

Compound	BLOOD UREA NITROGEN / mg/dL
O=NN(CCCl)C(=O)NC1CCCCC1	12.33

Value sought for every listed compound: BLOOD UREA NITROGEN.
1. Cc1oncc1C(=O)Nc1ccc(C(F)(F)F)cc1 [LEFLUNOMIDE]
2. OC(Cn1cncn1)(Cn1cncn1)c1ccc(F)cc1F
3. O=C(O)CCCc1ccc(N(CCCl)CCCl)cc1
4. CCOC(=O)C1=C(COCCN)NC(C)=C(C(=O)OC)C1c1ccccc1Cl (stereo not given)

1: 11.33; 2: 14.33; 3: 14.33; 4: 12.33
